- TEST_TARGET: CYP142 (Rv3518c) (Mycobacterium tuberculosis)
- PROCEDURE_DETAILS: biochemical
- Type: binding
- Sequence (P9WPL5 whole entry): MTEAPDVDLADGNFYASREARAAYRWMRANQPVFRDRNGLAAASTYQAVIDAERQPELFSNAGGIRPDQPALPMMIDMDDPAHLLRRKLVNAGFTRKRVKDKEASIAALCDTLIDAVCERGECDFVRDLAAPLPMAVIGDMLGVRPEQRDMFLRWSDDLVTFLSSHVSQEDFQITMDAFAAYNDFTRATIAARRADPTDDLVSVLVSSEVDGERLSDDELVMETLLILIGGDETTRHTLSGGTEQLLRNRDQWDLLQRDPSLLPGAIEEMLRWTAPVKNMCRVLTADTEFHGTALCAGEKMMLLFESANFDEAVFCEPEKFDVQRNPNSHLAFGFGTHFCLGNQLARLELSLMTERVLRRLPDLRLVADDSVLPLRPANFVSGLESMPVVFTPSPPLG
Hi there, I'd appreciate the recorded Kd for every entry that follows.
The answer consists of two parts: a number and, after it, its unit.

Cc1cc(CCC(C)C)ccc1NC=NO
0.17 µM

Batch of 2 compounds: report Kd for each.
1. O=C(O)CCCCCCCn1ccnc1
2. CCOC(=O)CCCCCCn1ccnc1

1: 31 µM; 2: 3.73 µM

====

Hi there, I'd appreciate the recorded Kd for every entry that follows.
- TEST_TARGET: CYP142 (Rv3518c) (Mycobacterium tuberculosis, UniProt P9WPL5)
- PROCEDURE_DETAILS: biochemical
The answer consists of two parts: a number and, after it, its unit.

CC(C)CCC[C@@H](C)[C@H]1CC[C@H]2[C@@H]3C(=O)C=C4C[C@@H](O)CC[C@]4(C)[C@H]3CC[C@]12C [7ketoC]
4.3 µM

Given the compound CC(C)CCC[C@@H](C)[C@H]1CC[C@H]2[C@@H]3[C@@H](O)C=C4C[C@@H](O)CC[C@]4(C)[C@H]3CC[C@]12C [7βOHC] , write its reported Kd.
6 µM

Source listed as paper doi:10.1101/2020.07.07.192294v1.
